experiment: folding stability dG unfold from trypsin proteolysis; higher = more stable
Tag: MET if measured folding stability dG unfold is not below 2 kcal/mol, NOT MET if it is.

Example results:
>>> assignedclass("SAGGSAGGSAGGKPKIEIELTFIDEDGYAYRLRAEIEIDEDGNVHIEVEIEKVPLPEGLSAGGSAGGSAGGS [r10_563_TrROS_Hall]")
"MET"
>>> assignedclass("SAGKKTIMIFIPGNMPLDTLKSALRNLPPNVEIHIMYPGQMQTITYDPDDIEIELPPGFPNFYIMIEVPSAG [r5_373_TrROS]")
"MET"
>>> assignedclass("SAGGSASVVLPNATVEELKEAVEKGAKEIVVVSPDPARAATIKAEIEKLHDTPVKVLTPEEAAALESAGGSA [r15_243_JUSTAS]")
"NOT MET"
>>> assignedclass("SAGGSAGGSAGGTAEEIKEAIEELGYKVEVEVTDDAVKIRLELPNGEKFEFEIPKEALESAGGSAGGSAGGS [r10_1029_TrMRF]")
"MET"
>>> assignedclass("SKPNLEVKEVEIKMTAEEIKKLLKPNVTKIEKVNGKYYVTVKVNGVLVKIEIKYDKETNEVTVKIYVIKPSA [r9_604_TrROS_Hall]")
"MET"

Problem: Test whether the sequence SAPDKIEIPITFPNGYTFWIKIDPDRIRVTWMDNGLRREKEITPDGMIKLDFRMPNGRPIMSPTIPLEDSAG [r14_213_TrROS] records folding stability dG unfold of 2 kcal/mol or higher.
Result: NOT MET

Problem: Please indicate if the recorded folding stability dG unfold for SAKKVPKIEKIEFIPGPNLVKITIPVPEKDKLLVTIDLKDKKLEFELKKNTSFYFSAKYADIKVSVEKKSAG [r14_96_TrMRF] meets or exceeds 2 kcal/mol.
Result: MET

====

experiment: folding stability dG unfold (combined trypsin and chymotrypsin); higher = more stable
This listing pairs sequences with measured folding stability dG unfold.
Lab book: enter the figure in kcal/mol, no units written.

>>> reading("SAGAMVTHTITVKIDPSELDKLEEILEKIKNSGPVKAIEPVSFEPGTGVYTVKVTADPATIKLVEEALKSAG [r5_193_JUSTAS]")
4.24
>>> reading("SAGGSASMITSTLTDPSTGTSSTLPTEVLQKLLDENPPDSNLVLPTGPKPVTVKVEPEKGLATFTGSAGGSA [r15_350_JUSTAS]")
-0.989
>>> reading("SAVTLLSTEFVPEEGVVRLLFERPAPPDTTTFTFSVSVNGYPIESISLSVDPATNTATATATAKVPPGLSAG [r14_244_JUSTAS]")
3.2

Let's switch to this sequence now.
Problem: Assign folding stability dG unfold to the following record: SAGGSAGGMKTKTYTIPLSQVSSIDPSGTVSEEEVKALGLPPNFKATVVPLPGSEEAVEVTVPESAGGSAGG [r6_553_JUSTAS]
Result: -0.381

====

experiment: folding stability dG unfold from trypsin proteolysis; higher = more stable
Each entry falls in a class defined on folding stability dG unfold; the bands are low bracket: < 0.4 kcal/mol; middle bracket: ≥ 0.4 kcal/mol and < 2 kcal/mol; high bracket: ≥ 2 kcal/mol

>>> assignedclass("SMTLTETKVLTTETLSGEEFAKRSGVPVEEIRKSGVKYNVTVTPVEVTYYDPETGKTYKRTSTTVTITPESA [r9_382_JUSTAS]")
"low bracket"
>>> assignedclass("SAGGSKPKTVEITLEVDGKKVKITVTEKDGKLTVTITFPDGTKLTIELPENMSIEEALKKALEALKSAGGSA [r2_92_TrROS_Hall]")
"high bracket"
>>> assignedclass("SMKVTVTVERLPDGRGRITITINDSTLEIEVPPGLDPEELRAFAEETAKEIEEKLKEEGNPVTIEEITLSSA [r9_751_JUSTAS]")
"high bracket"
>>> assignedclass("SMKPPVVEIKAKVVEVKEVNGKLYVKVEITEIKDAPPEVKELIKEGKTILVEVKPGEEVKEGDEVTIKIVSA [r9_557_TrROS_Hall]")
"high bracket"
>>> assignedclass("SAGGSAGGMVPITDLTVDSEEFVLPTGGVATRETITRPATGLVYEKVVFTPKPGVVEQREVALLSAGGSAGG [r6_895_JUSTAS]")
"low bracket"
>>> assignedclass("SAGGSAPSISYTDPNITTITVNPPYITTTRPDGTTTVYKVNNGGDITKLKTTPPVPPAAATDASVASAGGSA [r15_393_JUSTAS]")
"low bracket"
>>> assignedclass("SAGGSAGGSGVSSVLESLPPSYTVTVEKLPESGKLVVTVTSPSGAAPSLTLDEELADLLKELLSAGGSAGGS [r12_174_JUSTAS]")
"high bracket"
>>> assignedclass("SAGGTVEEIKEKLEEAGWEVVKVEKKEDGSITVTVRRKDGKELKIEIDLKNEEVRKALAELLPEEELSAGGS [r16_821_TrROS_Hall]")
"high bracket"

Problem: Category of SAGGSAGPMSVKEYEFEAVVPPGEEEAWVEEYIKKEFKSKIVKIEVKREKLPDGTYRVPVKITVKESAGGSA [r15_138_JUSTAS] :
Result: middle bracket

Problem: Exam item: assign SAGGSAGGSAGGPYWRVKIEWMDPNGKKKEHTFTFPPGWPLEEIAEELKPNGYKIEVEPLSAGGSAGGSAGG [r7_226_TrROS] to the correct category.
Result: middle bracket

Problem: Category lookup for the sequence SAERTPVREADIPIPGLPVVVRVRTYAEAVELARKSGVPVVVETVEVEVFLPDGSRVRFPAPGLLVLDGSAG [r14_100_TrMRF]
Result: middle bracket

====

experiment: folding stability dG unfold from trypsin proteolysis; higher = more stable
Response field class: enum, chosen by comparing folding stability dG unfold against range A (below 0.8 kcal/mol), range B (0.8 kcal/mol to below 2 kcal/mol), range C (2 kcal/mol or more)

>>> assignedclass("SAGGSAGGGPKVTVEVTESKVYELEDGSYVAVNTYTVTFEAEGKTVKVTFYRTFPKGFAGGPFSSAGGSAGG [r6_799_TrMRF]")
"range C"
>>> assignedclass("SAGGSAGGSAGERLTADELRKLAEELGLPAEITVERKEDGTYTVTITVDGKTYKIEIKLDSAGGSAGGSAGG [r11_410_TrROS_Hall]")
"range C"
>>> assignedclass("SAGGSAGGSAGMKTVTVTVPPSAGVDAVREALAAQGMTVTSVSREGDTLTVTTEAPPELLSAGGSAGGSAGG [r11_672_JUSTAS]")
"range A"
>>> assignedclass("SAGMVIKVKVKNKDGEELELVIEIPEEELPEELTEEELKELAKKLAEELAKEGKVEVVEVEIVEPEELSAGG [r19_27_TrROS_Hall]")
"range C"
>>> assignedclass("SAGEPEKVTITLVDEETGVVITIEIDKETKKITITVESEEERERARELAERLAKELEEAGIKVEILPPSAGG [r19_354_TrROS_Hall]")
"range C"

Problem: Class for SAGGSAGGSELPEGVEVETEPIAEIEITDEDGRKYKISIEAVKIRGPDGKEFLVISVSIEELPSAGGSAGGS [r12_544_TrROS_Hall] ?
Result: range C

Problem: Which class is correct for the following sequence? SAGGSAGGSAKWIYIMLPFPEGQKVEIEYPNGRKHSYEQTPDGMLMIRVRRPNAPIKIKIKSAGGSAGGSAG [r3_334_TrROS]
Result: range B

Problem: Determine which band this sequence sits in: SMIIKPGMSLEEVLNKIKELLKKGEKYKITVINKETGKVYEFEIDVKTKKIKVKEVTLENGEVIIKIEKVSA [r9_1059_TrROS_Hall]
Result: range B

Problem: Any idea which band SAGGSAGGSAGGMKIKNAEIVEVKEENGKKTLLVKNKETGKYYKITIDDNKITIEEVKVPSAGGSAGGSAGG [r7_940_TrROS_Hall] is in?
Result: range C

Problem: Sort SAGGEEVILTLPDGSPVRVIPDEGTASFELPGYRVETEVLPDGRIRLTVRDPAAGALVRELDLGLLRSAGGS [r16_760_JUSTAS] into one of the categories.
Result: range A

Problem: State the band of SAEKPPVVTLEIEIEIVVKDENGKTHKRKFRLTVTFYPDGTVEISIYDENGELIETITLPPGATLEELLSAG [r14_559_TrROS_Hall]
Result: range C

Problem: Form: Item = SAGMTIVIGAPPELSLEEAVEKAIEAVEALFPDKLKPGSKIKVIVRVYDPETGSVDEVTVEIDVPPGALSAG [r5_916_TrMRF] ; Class = ?
Result: range C

Problem: Dear colleague, I would appreciate it if you could identify the bin for SAGGGSMLIRRRLLLVERIEDGLLTYDIEEEVYLPLPEPEVPVSVERRPDGSLVLTFPDGTRRLLPRSAGGS [r16_136_JUSTAS] and reply at your convenience.
Result: range B
